Molecular target: Recombinant Human FGFR2 alpha (IIIc) Fc Chimera Protein (Homo sapiens, UniProt P21802)
Construct: Fc (chimera); purchased R&D systems 712-FR-050
Sequence (P21802 with tags, fused parts or gaps limits assumed): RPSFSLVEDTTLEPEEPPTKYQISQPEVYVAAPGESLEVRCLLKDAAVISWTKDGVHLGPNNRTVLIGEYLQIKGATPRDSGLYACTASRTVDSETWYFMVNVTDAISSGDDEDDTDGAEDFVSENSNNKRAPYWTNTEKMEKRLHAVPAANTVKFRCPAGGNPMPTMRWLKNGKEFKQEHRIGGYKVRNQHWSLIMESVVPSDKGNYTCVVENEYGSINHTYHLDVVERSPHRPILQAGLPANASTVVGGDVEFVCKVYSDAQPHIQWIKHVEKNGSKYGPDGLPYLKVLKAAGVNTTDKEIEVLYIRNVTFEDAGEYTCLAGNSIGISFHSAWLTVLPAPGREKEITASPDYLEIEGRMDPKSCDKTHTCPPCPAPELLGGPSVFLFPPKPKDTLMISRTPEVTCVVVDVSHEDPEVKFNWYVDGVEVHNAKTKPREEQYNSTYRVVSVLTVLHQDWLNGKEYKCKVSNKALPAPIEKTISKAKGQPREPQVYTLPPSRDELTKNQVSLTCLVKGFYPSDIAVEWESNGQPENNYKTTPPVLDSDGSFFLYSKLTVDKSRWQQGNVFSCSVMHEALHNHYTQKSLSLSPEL
Assay: ELISA binding affinity of enzymatically synthesized peptide to FGFR
Details: ELISA luminescence signal at 10 nmol/L peptide, SEQ ID NO: 47 at 10 nmol/L standardized to 1; enzyme synthesis product
Bridge positions count the residues as written; N and C are the ends. Ends that are not written are not given here. COCH2 = acetyl group that carries the bridge
Measured property: Evaluation result of binding affinity to FGFR

Example cases with answers are listed next.
Substance | Val
311 (YCEENYLDPEQYQYFIYFK(COCH2)V; thioether 2-19 (inferred)) [compound 311] | A (0.7 or more)
402 (PCEVYNYWYPTQWFFFTQFK(COCH2)K; thioether 2-20 (inferred)) [compound 402] | A (0.7 or more)
146 (TCEENYLDPEQYQYFIYFKY; Description of Artificial Sequence: Cyclic peptide) [compound 146] | A (0.7 or more)
153 (YCLENYLDPEQYQYFIYFK(COCH2)Y; thioether 2-19 (inferred)) [compound 153] | A (0.7 or more)

Quick one: Evaluation result of binding affinity to FGFR for 45 (TCPQNFRDELQFTYFTQYKY; Description of Artificial Sequence: Cyclic peptide) [compound 45] ?
A (0.7 or more)
